Tested on: ABC-1
assay remarks: relative viability (nuclei count vs DMSO), 5 days (fraction); higher = more cells survive
run parameters: first compound 1 µM
// NB: equality with 0.9 counts as NOT MET; only relative viability strictly below is MET

Examples with answers:
O=c1cc(N2CCOCC2)oc2c(-c3cccc4c3sc3ccccc34)cccc12 + O=C(c1cc(Cc2n[nH]c(=O)c3ccccc23)ccc1F)N1CCN(C(=O)C2CC2)CC1 [Olaparib] (partner 8 µM): MET
O=c1cc(N2CCOCC2)oc2c(-c3cccc4c3sc3ccccc34)cccc12 + N=C(N)NC(=N)NCCc1ccccc1 [Phenformin] (partner 250 µM): MET

Is 0.9 strictly greater than the molecule's reported relative viability? molecule: O=c1cc(N2CCOCC2)oc2c(-c3cccc4c3sc3ccccc34)cccc12 + Cc1nc(NC(=O)N2CCC[C@H]2C(N)=O)sc1-c1ccnc(C(C)(C)C(F)(F)F)c1 [Alpelisib] (partner 2 µM)
MET

Is 0.9 strictly greater than the molecule's reported relative viability? molecule: CCN(CC)CCCCNc1ncc2cc(-c3cc(OC)cc(OC)c3)c(NC(=O)NC(C)(C)C)nc2n1 + O=C(c1cc(Cc2n[nH]c(=O)c3ccccc23)ccc1F)N1CCN(C(=O)C2CC2)CC1 [Olaparib] (partner 8 µM)
NOT MET

Is 0.9 strictly greater than the molecule's reported relative viability? molecule: O=c1cc(N2CCOCC2)oc2c(-c3cccc4c3sc3ccccc34)cccc12 + O=C(CCCCCCC(=O)Nc1ccccc1)NO [Vorinostat] (partner 1 µM)
NOT MET

Is 0.9 strictly greater than the molecule's reported relative viability? molecule: CCN(CC)CCCCNc1ncc2cc(-c3cc(OC)cc(OC)c3)c(NC(=O)NC(C)(C)C)nc2n1 + COc1cc2c(Oc3ccc(NC(=O)C4(C(=O)Nc5ccc(F)cc5)CC4)cc3F)ccnc2cc1OCCCN1CCOCC1 [Foretinib] (partner 0.25 µM)
NOT MET

Is 0.9 strictly greater than the molecule's reported relative viability? molecule: O=c1cc(N2CCOCC2)oc2c(-c3cccc4c3sc3ccccc34)cccc12 + COc1cccc2cc(-c3nc([C@H]4CC[C@H](C(=O)O)CC4)n4ncnc(N)c34)[nH]c12 [OSI-027] (partner 0.5 µM)
MET

Is 0.9 strictly greater than the molecule's reported relative viability? molecule: O=c1cc(N2CCOCC2)oc2c(-c3cccc4c3sc3ccccc34)cccc12 + CC(=O)c1c(C)c2cnc(Nc3ccc(N4CCNCC4)cn3)nc2n(C2CCCC2)c1=O [Palbociclib] (partner 0.5 µM)
MET

Is 0.9 strictly greater than the molecule's reported relative viability? molecule: O=c1cc(N2CCOCC2)oc2c(-c3cccc4c3sc3ccccc34)cccc12 + Nc1ncn([C@H]2C[C@H](O)[C@@H](CO)O2)c(=O)n1 [Decitabine] (partner 2 µM)
NOT MET
